Sourced from the RNAGym collection of RNA variant scans (doi:10.1093/molbev/msab373)

Reported reverse-splicing fitness values follow for various variants
B1: Azoarcus group I ribozyme (parent)
chain: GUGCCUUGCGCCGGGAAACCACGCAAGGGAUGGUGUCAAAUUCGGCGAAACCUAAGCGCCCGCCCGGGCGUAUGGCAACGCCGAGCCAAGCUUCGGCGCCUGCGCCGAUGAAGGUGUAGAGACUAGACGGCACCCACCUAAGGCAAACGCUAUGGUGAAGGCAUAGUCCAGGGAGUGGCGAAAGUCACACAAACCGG

# Variants of: B1
# method_summary: reverse-splicing fitness (ratio to wild type); higher = more active; in vitro selection; Mg2+ level not given
Form field (numeric): enter value without unit.

{"columns": ["variant_name", "reverse-splicing fitness"],
 "data": [
  ["C82G A120C A145C C150G", 0.0227],
  ["C82U A111C A120C A145G C150G C169G U176G", 0.00542],
  ["C82U A111U A120C C150U C169A U176C", 0.0129],
  ["C82G A145C U176G", 0.153],
  ["C82U A120C C150G C169U", 0.00921]
]}

Quickly give me recorded reverse-splicing fitness for C82A A111U A120U A145U C150G C169A U176C
0.00325

Quickly give me recorded reverse-splicing fitness for C82G A111G A120U A145U C150G U176G
0.00264

Quickly give me recorded reverse-splicing fitness for A111C A120U A145C C150U C169A U176A
0.00274

Quickly give me recorded reverse-splicing fitness for A111U A120C A145G C150U C169A U176A
0.0143

Quickly give me recorded reverse-splicing fitness for C82G A111G A120U C150U C169G U176A
0.00758

Quickly give me recorded reverse-splicing fitness for C82G A111G A120G A145U C150G C169U U176C
0.0149
